Assign Population Normal (%) to each entry below.
- Test system: HEK-293T
- assay.overview: Multiplex assay against HEK293T
- Format: toxicity, cell-based
- run.conditions: human, 12 h, 10 µM, compound concentration 10 uM, replicate 2
Write the answer as a number in %, unit excluded.

// query State its Population Normal (%): O=C1NCN(c2ccccc2)C12CCN(CCCOc1ccc(F)cc1)CC2 [SPIRAMIDE]
// result 97

// query Quickly give me recorded Population Normal (%) for C[C@@H](NCCCc1cccc(C(F)(F)F)c1)c1cccc2ccccc12.Cl [CINACALCET HYDROCHLORIDE]
// result 95

// query Report Population Normal (%), nothing else, for this compound: CN1CCC[C@@H]1CCO[C@](C)(c1ccccc1)c1ccc(Cl)cc1.O=C(O)/C=C/C(=O)O [CLEMASTINE FUMARATE]
// result 93

// query Return Population Normal (%) (reported value) for this compound: Cn1cc(-c2[nH]c3cc(NC(=O)[C@H](N)C4CCCCC4)cc4c3c2C=NNC4=O)cn1
// result 93

// query Determine its reported Population Normal (%): CN1CCCC(n2nc(Cc3ccc(Cl)cc3)c3ccccc3c2=O)CC1.Cl (stereo unspecified) [AZELASTINE HYDROCHLORIDE]
// result 95

// query // fetch Population Normal (%) given entry COc1cccc([C@@H](C)NCCCc2ccccc2Cl)c1.Cl [TECALCET HYDROCHLORIDE]
// result 95

// query Query Population Normal (%) for COc1ncc(-c2ccc3nccc(-c4ccnnc4)c3c2)cc1NS(=O)(=O)c1ccc(F)cc1F
// result 93

// query Give a short answer stating reported Population Normal (%) for CN1CCN(CCOc2cc(OC3CCOCC3)c3c(Nc4c(Cl)ccc5c4OCO5)ncnc3c2)CC1 .
// result 92

// query Please report Population Normal (%) for the following compound: Cc1[nH]c(/C=C2\C(=O)Nc3ccc(S(=O)(=O)N(C)c4cccc(Cl)c4)cc32)c(C)c1C(=O)N1CCN(C)CC1
// result 94

// query Fill in reported Population Normal (%) for this entry: CC[C@H](C)C(=O)O[C@H]1C[C@@H](C)C=C2C=C[C@H](C)[C@H](CC[C@@H]3C[C@@H](O)CC(=O)O3)[C@H]21
// result 96

// query Assign Population Normal (%) to the following record: Cc1nc(Nc2n[nH]c3c2CN(C(=O)N[C@H](CN(C)C)c2ccccc2)C3(C)C)c2sccc2n1
// result 93

// query Give Population Normal (%) for the following compound: Cc1csc2c(N[C@@H](C)CN3CCN(S(=O)(=O)c4ccc(Cl)c(Cl)c4)CC3)ncnc12
// result 91

// query Give the reported Population Normal (%) for this compound. C=CC(=O)Nc1cc2c(Nc3ccc(F)c(Cl)c3)ncnc2cc1OCCCN1CCOCC1.Cl.Cl [CANERTINIB DIHYDROCHLORIDE]
// result 96

// query Quick one: give measured Population Normal (%) for C=CC(=O)Nc1cccc(C(=O)Nc2ccc(Nc3cc(-c4[nH]c(SC)nc4C)ccn3)cc2)c1
// result 93

// query Return Population Normal (%) (reported value) for this compound: Cc1nc(-c2ccc(-c3ccc(C(=O)N4CCc5cc6c(cc54)C4(CCN(C)CC4)CO6)cc3)c(C)c2)no1
// result 90

// query Output Population Normal (%) of CC(C)(O)CNc1ncc(-c2ccnc(Nc3ccnc(Cl)c3)n2)c(CC2CC2)n1
// result 85
